In this section, each of the compounds is paired with its reported pIC50.
- target-or-system: MMP-1 (Homo sapiens, UniProt P03956)
- Sequence (P03956 100-469, species assumed): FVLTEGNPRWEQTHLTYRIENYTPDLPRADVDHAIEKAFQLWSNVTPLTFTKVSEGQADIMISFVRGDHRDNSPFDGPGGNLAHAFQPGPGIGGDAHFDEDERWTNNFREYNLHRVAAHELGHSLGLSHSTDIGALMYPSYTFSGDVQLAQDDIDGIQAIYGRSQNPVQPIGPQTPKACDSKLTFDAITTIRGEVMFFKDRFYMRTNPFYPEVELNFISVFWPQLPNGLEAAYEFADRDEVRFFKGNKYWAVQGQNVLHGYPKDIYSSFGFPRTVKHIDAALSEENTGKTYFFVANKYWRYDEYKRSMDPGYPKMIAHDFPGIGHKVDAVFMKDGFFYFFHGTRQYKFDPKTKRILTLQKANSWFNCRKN
- assay-name: MMP-1 inhibitory action (Type I collagen Activity Measurement kit, FITC-labeled collagen type I)
- Type: biochemical
- test-parameters: Experimental Example 2; read-out: IC50 MMP1
pIC50: −log10 of the molar value.

# count of solved cases: 8
O=C(O)C1(NS(=O)(=O)c2ccc(-c3ccc(Cl)cc3)s2)CC1(Cn1ccnc1)c1ccccc1 (centres unmarked) = ≤ 5.00
CCNC(=O)N1CCN(S(=O)(=O)N[C@@]2(C(=O)O)C[C@@H]2c2ccccc2)CC1 = ≤ 6.00
COCCN(C)CC1(c2ccccc2)CC1(NS(=O)(=O)c1ccc(-c2cc(C(F)(F)F)on2)s1)C(=O)O (centres unmarked) = ≤ 5.00
CC1[C@H](c2ccccc2)[C@]1(NS(=O)(=O)N1CCC(OCc2cccc(Cl)c2)C1)C(=O)O (some centres unmarked) = ≤ 6.00
COCc1cc(-c2ccc(S(=O)(=O)N[C@@]3(C(=O)O)C(C)[C@@H]3c3ccccc3)s2)no1 (some centres unmarked) = > 6.00
O=C(O)C1(NS(=O)(=O)c2ccc(-c3cc(C(F)(F)F)on3)o2)C2CCCc3ccccc3C21 (centres unmarked) = ≤ 5.00
O=C(NC[C@H]1CCCO1)OCC1(c2ccccc2)CC1(NS(=O)(=O)c1ccc(-c2cc(C(F)(F)F)on2)s1)C(=O)O (some centres unmarked) = ≤ 6.00
CC1[C@H](c2ccccc2)[C@]1(NS(=O)(=O)N1CCC(OCc2ccc(Cl)cc2)C1)C(=O)O (some centres unmarked) = ≤ 6.00

[in] Quick one: pIC50 for O=C(O)C1(NS(=O)(=O)c2ccc(-c3ccc(Cl)cc3)s2)C2CCc3ccccc3C21 (centres unmarked) ?
[out] ≤ 6.00

[in] Quick one: pIC50 for CC1[C@H](c2ccccc2)[C@]1(NS(=O)(=O)c1ccc(-n2cccn2)s1)C(=O)O (some centres unmarked) ?
[out] ≤ 6.00

[in] Quick one: pIC50 for CC1[C@H](c2ccccc2)[C@]1(NS(=O)(=O)N1Cc2ccc(O)cc2C1)C(=O)O (some centres unmarked) ?
[out] ≤ 6.00

[in] Quick one: pIC50 for `CCOC(=O)c1cccc(-c2ccc(S(=O)(=O)N[C@@]3(C(=O)O)C[C@]3(C)c3ccccc3)s2)c1` ?
[out] ≤ 5.00

Data provenance: patent US20080261994A1
